target: 肝癌Huh-7细胞 (Huh-7癌细胞抗原; Huh-7细胞裂解蛋白); assay: SPR, BIAcore T-200, 1:1 Langmuir model; binding to liver cancer Huh-7 cells
pKd reference
Scale: negative log10 of molar concentration, which is what pKd denotes.

binder	pKd
6F4单克隆抗体 (antibody, V domains shown) VH: EVKLVESGGGLVKPGGSLKLSCAASGFTFSQYASLWVRQIPEKRLEWVAAISGQGSLYFPDSVCTRFTISRDNARNICYLQMNSLRSDDTAMYYCARGAAADGGYFDTWGQGTTLTVSS VL: DIVLTQSPASLAVSLGQRATISCSASESVEFSGTSLTRWYQQKPGQPPKLLIYASQNVEGGVPARFSGSGSGTDFSLNIHPVEEDDIAMYFCCYSMKVPPRFGAGTKLELK	9.21
6G5单克隆抗体 (antibody, part only; not given: Light chain variable region, V domains shown, part only) VH: EVKLVESGGGLVKPGGSLKLSCAASGFTFSAYAMTWVRQIPEKRLEWVAAISPTGSLYFPGSVSGRFTISRDNARNICYLQMNSLRSDDTAMYYCARGVEADSQYFDKWGQGTTLTVSS	9.47
5A3单克隆抗体 (antibody, V domains shown) VH: EVKLVESGGGLVKPGGSLKLSCAASGFTFSRYAMSWVRQIPEKRLEWVAAISSGGSLYFPDSVKGRFTISRDNARNICYLQMNSLRSDDTAMYYCARGREADGGYFDYWGQGTTLTVSS VL: DIVLTQSPASLAVSLGQRATISCSASESCYYYGTSLAQWYQQKPGQPPKLLIYKLSNVRGGVPARFSGSGSGTDFSLNIHPVEEDDIAMYFCRQPMKVPLKFGAGTKLELK	9.24

Turning now to a further record.
[in] Which measured pKd value corresponds to 2D3单克隆抗体 (antibody, V domains shown) VH: EVKLVESGGGLVKPGGSLKLSCAASGFTFSSAAMRWVRQIPEKRLEWVARIEEGGSAYFPDSVLVRFTISRDNARNICYLQMNSLRSDDTAMYYCARSRESPAGYFKLWGQGTTLTVSS VL: DIVLTQSPASLAVSLGQRATISCCASESVHPYGTSLAMWYQQKPGQPPKLLIYASSRVEPGVPARFSGSGSGTDFSLNIHPVEEDDIAMYFCSSSGQVPARFGAGTKLELK ?
[out] 9.64
